protocol-notes: folding stability dG unfold from chymotrypsin proteolysis; higher = more stable
Hi there, I'd appreciate the recorded folding stability dG unfold for every entry that follows.
Field note: include the unit after the figure.

[Q] folding stability dG unfold lookup needed for SAGGSAGGSAGFKVPPGWKIVNTYRSPESGYPTAILRDPGDNKPLIFDFDNGKIMPAKDISAGGSAGGSAGG [r11_268_TrROS] , thanks.
[A] -0.535 kcal/mol

[Q] folding stability dG unfold lookup needed for SAGGAEQAREILKEWGFEISEVDPKKKTVQVTPPESGMPISIDVDEPGQIKIKIRMNGKPRTFEIPPSAGGS [r16_197_TrROS] , thanks.
[A] -0.634 kcal/mol

[Q] folding stability dG unfold lookup needed for SAGGAVYRNPATGEWYEPGMTEEEREARARAALPPPTVTITVTVTVVFEDNGTTVTATATVTLTVEGSAGGS [r16_387_TrROS_Hall] , thanks.
[A] 3.83 kcal/mol

[Q] folding stability dG unfold lookup needed for SAGGSAGGIEAVREALEDMPPGEEKEITIPVPGDPNYYIKFTIRTKGNKIKIPIEIEPMPPGQMSAGGSAGG [r6_393_TrROS] , thanks.
[A] 1.63 kcal/mol

[Q] folding stability dG unfold lookup needed for SAGPEKPFDIVIVEVKSMEVHEDPNGRRSVRIPVVARIPGGYYIRFEIWINPPTGNVSIDWEIVPLDDSAGG [r19_320_TrROS] , thanks.
[A] 4.21 kcal/mol

[Q] folding stability dG unfold lookup needed for SAGGSAGLEGVAKAILDKLPPNRKIAAFTVNEEEAKTATFTTPDGNEINITAAGDKIASIDIIDAESAGGSA [r15_175_TrMRF] , thanks.
[A] 0.429 kcal/mol

[Q] folding stability dG unfold lookup needed for SAGGSAGGMKITKIESVEPNPENGMVSLEMKIENGASILIHYNPDNGKVTIMVFKPNEIEPIELSAGGSAGG [r6_796_TrROS] , thanks.
[A] 1.91 kcal/mol

====

Hi there, I'd appreciate the recorded folding stability dG unfold for every entry that follows.
protocol-notes: folding stability dG unfold (combined trypsin and chymotrypsin); higher = more stable
The response must be a number in kcal/mol with no trailing unit.

[Q] folding stability dG unfold lookup needed for SAGGSAGGSASVGLLSVSTTPSGPGTTVTATTALPDGTVRTETRTEAGDGTATATTVTPLAASAGGSAGGSA [r18_79_JUSTAS] , thanks.
[A] -0.295

[Q] folding stability dG unfold lookup needed for SAMKIKIKVIGVLKPENHALIFLELDDSIPPEIPVVIRIKNENGEILEIPIEGNRALLVVDDRKIEILTSAG [r14_350_TrMRF] , thanks.
[A] 1.73

[Q] folding stability dG unfold lookup needed for SAKPPKVEVKTVRVTIKVRNKDGSTYTITKEVTEVRVEVDGKTVTVTSIKITIELPPGITEVEIKIEKVSAG [r14_892_TrROS_Hall] , thanks.
[A] 4.47

[Q] folding stability dG unfold lookup needed for SAGGMKLTVEIEYDEETEEVTIRIRNEETGEEIEITLSKEEVEKLLEALEKNPEKSIEEALLEALKESAGGS [r8_484_TrROS_Hall] , thanks.
[A] 2.43

[Q] folding stability dG unfold lookup needed for SASSSMSSSSTSRTVPTPEGPVSITITFYPSTGKYTATITDPATSTATTVPSPGSSVEEAIAEAIALLASAG [r14_65_JUSTAS] , thanks.
[A] 2.21

[Q] folding stability dG unfold lookup needed for SAGGSAGMMTDVEVEEYPGTGLVRITIRTPDAVVSGEGRFLSPELLEITISFPGAGKRTNELIPVRSAGGSA [r15_837_JUSTAS] , thanks.
[A] 1.2

[Q] folding stability dG unfold lookup needed for SAGGSAGGSAPDNVEIEVYELPAGMYRVKIWPPGGNRHEFNFPPGEPKKIKIPPGVSIEIWPFSAGGSAGGS [r12_517_TrROS] , thanks.
[A] 0.743

[Q] folding stability dG unfold lookup needed for SAGGSAGGSAGGGMTVEESVFLDPSGTRITVTTRVFDDGTVVTETEVTPLPPTPNPALASAGGSAGGSAGGS [r10_878_JUSTAS] , thanks.
[A] 1.11

[Q] folding stability dG unfold lookup needed for SAGGSAGGSKIEFTVPDNDELIEYIRKWFQDNGGQIKNIKIEPTPPNQVKVEIEINPGDPWFQSAGGSAGGS [r12_647_TrROS] , thanks.
[A] 2.2

[Q] folding stability dG unfold lookup needed for SAGGSQLDEYRKKVEEAIEKAKAEGKPVEKIELTGSEEVAKEVREWLEEQGIPKSVKVTVTPPAINESAGGS [r16_164_JUSTAS] , thanks.
[A] 0.83

[Q] folding stability dG unfold lookup needed for SAGGSAGGSTLVFAPDDTLYLRIYLPETGGWRYIEVPAGQADSVARPLGAVRLEAYRRDEPVPSAGGSAGGS [r12_294_TrMRF] , thanks.
[A] 0.123

[Q] folding stability dG unfold lookup needed for SAGGSAGGSAGGMYIATFKPPDGSEITVKLNPGEKVTIKLKDGTPAGVVSKKAVSPELLSAGGSAGGSAGGS [r10_422_JUSTAS] , thanks.
[A] -0.361

[Q] folding stability dG unfold lookup needed for SAGGSAGGEEEELTEEERRELERRRRRLEEERRRRRPPRPRLRLTLTVRLPDGSTVTLEVEIRLSAGGSAGG [r6_844_TrROS_Hall] , thanks.
[A] 3.16

[Q] folding stability dG unfold lookup needed for SAGGSAETAIDLGPPNTTGVLEIEYFDENGNTRRATATFDPNPATISFNEPVEIPPNARIEIKPTSSAGGSA [r15_198_TrMRF] , thanks.
[A] 0.545

[Q] folding stability dG unfold lookup needed for SAGDAVRIPIRFPNGMQIYSIEINPDENTIKIKIYDPNGYRKFEWTFPVKDPNGDPKLVGKIKFYMRPPSAG [r5_434_TrROS] , thanks.
[A] 2.31

[Q] folding stability dG unfold lookup needed for SAGGSAGGSAGMTLIYKDPETGKYYIVDFEESGPERVFEVDSLDEAEEIAEKLGRKLDPLSAGGSAGGSAGG [r11_1049_TrMRF] , thanks.
[A] 2.31

[Q] folding stability dG unfold lookup needed for SAGGSAGGSASMTVRATLPNGEEIEFEADVIKADPGGDSVTVYLILPNGGEIPFEVELEEEESAGGSAGGSA [r18_163_TrMRF] , thanks.
[A] 0.574

[Q] folding stability dG unfold lookup needed for SAGMKIEVKRLPGPGDYLFTLVDPELAARLKAVYPGLEEVIFPVGGPDSVPEEEIKERAEKELKELLLSAGG [r19_298_JUSTAS] , thanks.
[A] -0.268

[Q] folding stability dG unfold lookup needed for SAGGSAGGMKLLKVVVERKDGSKRELEIPEELLVELGRPPTPEEIAKLLGIKPEDIVRVEIEDVSAGGSAGG [r6_166_TrMRF] , thanks.
[A] 4.74

[Q] folding stability dG unfold lookup needed for SAGGAKVTEVKVENGYVTVTVDGKLVAKAPPPPPPPKVRVRNADGEEEERSLEDLLAENPENLEIELESAGG [r13_802_TrROS_Hall] , thanks.
[A] -0.0384

[Q] folding stability dG unfold lookup needed for SAGGSAGGSAGGMKIKNAEIVEVKEENGKKTLLVKNKETGKYYKITIDDNKITIEEVKVPSAGGSAGGSAGG [r7_940_TrROS_Hall] , thanks.
[A] 3.87

[Q] folding stability dG unfold lookup needed for SAGGSAGGSAGGMTLTVKDPASDEWTTVDLSPEQLPEVRAAVPEGPVTFELEASDSVIELSAGGSAGGSAGG [r7_188_JUSTAS] , thanks.
[A] 0.409

[Q] folding stability dG unfold lookup needed for SAGGSAGGPEIDLKEVRVFYPPGGERLVLVEVRDDVPLEQVRDWVLERGGEFYRELPNQILVRGSAGGSAGG [r6_543_TrMRF] , thanks.
[A] -0.00273

[Q] folding stability dG unfold lookup needed for SAGGSAGGSAGIWIPIKDPKEAVDYIQEWFHKKGGYDINIEPTEVYPDGWVRVEINIEPKSAGGSAGGSAGG [r17_430_TrROS] , thanks.
[A] 1.06

[Q] folding stability dG unfold lookup needed for SAGGSAGGSAGGTITLPGGAEVTEVERLPGGVLKITGVLTLPGGPVTVEVTLPVTPELLESAGGSAGGSAGG [r7_38_JUSTAS] , thanks.
[A] 1.03

====

protocol-notes: folding stability dG unfold (combined trypsin and chymotrypsin); higher = more stable
measured-property: folding stability dG unfold

[Q] folding stability dG unfold lookup needed for SAGGATTPVTVPTTSEEEVEAIIEELNKEGLSDLIPKGGKPIPPPDSLRLVPLVITTTPGSGKTTVTLSAGG [r13_174_JUSTAS] , thanks.
[A] < -1 kcal/mol

[Q] folding stability dG unfold lookup needed for SAGGSAGGSAAPLEARLVSVSRDPAGNRLHAVYVVRDPSTGEQYLVTFSADPTSISVRVERVSAGGSAGGSA [r18_444_TrMRF] , thanks.
[A] 3.96 kcal/mol

[Q] folding stability dG unfold lookup needed for SAGGSAGGSAGSPVSNPEGGTITNTETLPDGKTIVNTQTIDPSKPKTTTSTTVLDPNGNAVSAGGSAGGSAG [r3_433_JUSTAS] , thanks.
[A] 1.27 kcal/mol

[Q] folding stability dG unfold lookup needed for SAGGKPKITITIEKLPDGTIRITITYEDGSKVEIEAKVTYDPKTNTLTIEVTIKINGKTYKITITFKSAGGS [r16_391_TrROS_Hall] , thanks.
[A] 4.35 kcal/mol

[Q] folding stability dG unfold lookup needed for SVVLDVPYENRPDLLATIRALVAEKAPPVVVFVEAPEAERARLRRELEALGFTVEPTPVPNRYRITFRPASA [r9_600_TrMRF] , thanks.
[A] 3.15 kcal/mol

[Q] folding stability dG unfold lookup needed for SAGGMTPSVLSNLSEEERKEAVRDFIIEFIKKAFPNVPEDFSVEEVPVLVYDLKTGKLFEVTVHLEGKSAGG [r13_555_TrMRF] , thanks.
[A] 1.73 kcal/mol

[Q] folding stability dG unfold lookup needed for SAGGSAGGDKAVIVDFNPIEPEAVIYFPKTGKAIKFKFDSLEELRDSIEPSGIPVEIVITPPELSAGGSAGG [r6_27_TrMRF] , thanks.
[A] 0.141 kcal/mol

[Q] folding stability dG unfold lookup needed for SAGGSAGGSASVSSPERFTVPRPDGTPVEVTLVEPEKGYYEVTDPATGERTRLPIEDIPPVSAGGSAGGSAG [r3_213_JUSTAS] , thanks.
[A] < -1 kcal/mol

[Q] folding stability dG unfold lookup needed for SAGSLKPSDLVLLRSRPVRVGGKPVVLVDLVVFHPDGSASRAVLTLPSGVGPPVVGVVPVPALVRLIASSAG [r5_831_TrMRF] , thanks.
[A] 1.95 kcal/mol

[Q] folding stability dG unfold lookup needed for SAGMTITIPAPPSLSPEEAVALAIERVKEEYPELLTPGSEVNIVVIREDPATGTSQTLTVTVPFPEGIFSAG [r5_916_JUSTAS] , thanks.
[A] 1.79 kcal/mol

[Q] folding stability dG unfold lookup needed for SAGGSAGGSAGGSSVKLTLPDGSQVTVDIHPDGTATVTTFPGDTPSVTNMPVSAFQAALPSAGGSAGGSAGG [r7_178_JUSTAS] , thanks.
[A] 2.08 kcal/mol

[Q] folding stability dG unfold lookup needed for SAGSVTITLNIPPGQDVTLNIGGKEATLTVDPETKVYTMTDPQTGDVWTVTVDPNSPVASVTYTAAPAGSAG [r5_302_JUSTAS] , thanks.
[A] 1.37 kcal/mol

[Q] folding stability dG unfold lookup needed for SKTIYIPKNVPIDYILKVVKEAEKKGKPVKIVIETYNNPKVIEALKKAGYKVEIKEDKKKKITLIVVYPESA [r9_759_TrMRF] , thanks.
[A] 4.2 kcal/mol

[Q] folding stability dG unfold lookup needed for SAGGSAGGSAGGVPRLERFTLSPNGLPVRIFVDGDRALVVFEGPDGGLAVATFAVSDIPFSAGGSAGGSAGG [r7_653_TrMRF] , thanks.
[A] 1.31 kcal/mol

Data origin: the supplement of paper PMC12764529
